measurement protocol: luminescence decrease from intact luciferase reporter – cell-based, single concentration, SaOS-2, counter-screen for Mdm2/MdmX interaction inhibitor project, confirmation (AID 504607);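 further: p53-null SaOS-2 cells with luciferase driven by a doxycycline-inducible promoter; compound on cells about two nights before reading with doxycycline added after day one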
assay context: SaOS-2 full-length luciferase counterscreen, at 8 µM
In all, about 6,200 compounds went through this assay and about 4,800 (77%) were called active.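 How the source made its calls: active means mean inhibition at 8 µM reaching about 37%, which flags the compound as non-specific (limit read from the data); inactive means the rest.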 The set was probably picked from earlier hits. The list is a sample of the results.
Outcome codes: t for active, f for inactive

# compound, category label
rows = [
    ("Cc1cccc(Nc2ccccc2C(=O)NCc2ccco2)c1C", "t"),
    ("COC(=O)C1=C(Nc2ccc(C)cc2)C=C(C)C(C(=O)OC)C1c1ccc(F)cc1 (centres undefined)", "t"),
    ("CC(=O)c1ccc(S(=O)(=O)N2CCN(C(=O)/C=C/c3ccc4ccccc4n3)CC2)cc1", "t"),
    ("CCc1ccc(-c2cc3c(=O)n(CC(=O)NCCCN4CCN(Cc5ccccc5)CC4)nc(C)n3n2)cc1", "t"),
    ("CCCCCCCCn1c2c(c(=N)c3c1CCC3)CCCC2", "f"),
    ("O=C(/C=C/c1ccc(Cl)c([N+](=O)[O-])c1)c1ccc(O)cc1", "t"),
    ("COC(=O)c1sc(-c2ccc(C(C)(C)C)cc2)cc1NC(=O)/C=C/C(=O)O", "t"),
    ("COc1ccc(CN(C)C(=O)c2cc(-c3ccc(C)cc3C)nc3ccccc23)c(OC)c1OC", "t"),
    ("Cc1ccc(-c2nn(C(C)(C)C)c3ncnc(N)c23)cc1", "f"),
    ("N#CC1=C(N)Oc2cc(O)ccc2C1C1CCCCC1 (centres undefined)", "t"),
    ("COc1ccc2c(c1OC)C(=O)OC2Nc1nc(-c2ccccc2)cs1 (centres undefined)", "t"),
    ("COc1ccccc1N1CCN(C(=O)c2cc(=O)c3cc(C)cc(C)c3o2)CC1", "t"),
    ("O=C(NC(Nc1nc2ccc([N+](=O)[O-])cc2s1)(C(F)(F)F)C(F)(F)F)c1ccccc1", "f"),
    ("COc1ccc2cc1Oc1ccc(cc1)C[C@H]1c3cc(c(OC)cc3CCN1C)Oc1c(O)c(OC)cc3c1[C@H](C2)N(C)CC3", "t"),
    ("OC(CNCC1CCCO1)Cn1c2ccc(Br)cc2c2cc(Br)ccc21 (centres undefined)", "t"),
    ("Cc1cc(CNC(=O)c2cccc([N+](=O)[O-])c2)c2ccccc2n1", "t"),
    ("Cc1ccc(-c2nc3ccccc3[nH]2)cc1NC(=O)c1sc2ccccc2c1Cl", "f"),
    ("Cc1nnc(N/N=C/c2ccccn2)[nH]c1=O", "f"),
    ("COc1ccc(-c2cc(C(=O)N(C)Cc3ccc(OC)c(OC)c3OC)c3ccccc3n2)cc1OC", "t"),
]

The measurements presented in this section are drawn from PubChem BioAssay AID504607.
